B1: Osa-1-4 twister ribozyme (parent)
chain: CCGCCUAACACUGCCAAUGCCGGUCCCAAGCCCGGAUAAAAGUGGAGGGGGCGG

- Variants of: B1
- test: self-cleavage, relative activity (ratio to wild type); higher = more cleavage; co-transcriptional
Output: class label from self-cleavage. Mapping: bin 1: < 0.04; bin 2: ≥ 0.04 and < 0.08; bin 3: ≥ 0.08

QUERY: Could you tell me which band A10C G48A belongs to?
RESULT: bin 1

QUERY: Similarly, C15G C33A ?
RESULT: bin 2

QUERY: Similarly, G34A G51A ?
RESULT: bin 3

QUERY: Similarly, C52G G54A ?
RESULT: bin 3

QUERY: Similarly, G22C G49C ?
RESULT: bin 1

QUERY: Similarly, G51A G53C ?
RESULT: bin 2

QUERY: Similarly, C33A U37G ?
RESULT: bin 3

QUERY: Similarly, A17C C21G ?
RESULT: bin 2

QUERY: Similarly, G53A U12G ?
RESULT: bin 3

QUERY: Similarly, C9A G45U ?
RESULT: bin 1

QUERY: Similarly, C25U G50A ?
RESULT: bin 3

QUERY: Similarly, A41G C26A ?
RESULT: bin 2

QUERY: Similarly, C31G U24G ?
RESULT: bin 1

QUERY: Similarly, C11U G48C ?
RESULT: bin 2

QUERY: Similarly, A29G G34C ?
RESULT: bin 2

QUERY: Similarly, C15U U43A ?
RESULT: bin 3

QUERY: Similarly, C25U U37A ?
RESULT: bin 3

QUERY: Similarly, G35C G42C ?
RESULT: bin 2

QUERY: Similarly, A36G A40U ?
RESULT: bin 3

QUERY: Similarly, A8G G44U ?
RESULT: bin 3

QUERY: Similarly, A40U C11U ?
RESULT: bin 3

QUERY: Similarly, G35C G53C ?
RESULT: bin 2

QUERY: Similarly, C11G C14U ?
RESULT: bin 3

QUERY: Similarly, C21A C26U ?
RESULT: bin 3

QUERY: Similarly, C27G G42U ?
RESULT: bin 1

QUERY: Similarly, A29U C27A ?
RESULT: bin 1

QUERY: Similarly, C14U U43G ?
RESULT: bin 3

QUERY: Similarly, A17C G42C ?
RESULT: bin 3

QUERY: Similarly, A29C G34C ?
RESULT: bin 1

QUERY: Similarly, G22A G51U ?
RESULT: bin 3

QUERY: Similarly, C25A G13A ?
RESULT: bin 1

QUERY: Similarly, C27A U12C ?
RESULT: bin 2

QUERY: Similarly, G34A U12G ?
RESULT: bin 2

QUERY: Similarly, G13U G53A ?
RESULT: bin 1

QUERY: Similarly, A7U G48A ?
RESULT: bin 1

QUERY: Similarly, C15A G47U ?
RESULT: bin 2

QUERY: Similarly, C31G U12G ?
RESULT: bin 2
